Hi there, I'd appreciate the recorded inhibition for every entry that follows.
EXPERIMENTAL_TARGET: Calcium/calmodulin-dependent protein kinase type IV (Homo sapiens)
METHOD_NOTES: Inhibition of CaMK4 at 10 uM by HTRF assay relative to control
In your response, the unit should come after the numeric value.

Name the recorded inhibition for `CN(C)CC(C)(C)CNC(=O)[C@@H]1CCCN1c1nccc(Nc2ccccc2)n1` . 0%

Follow-up item: `O=C(c1nc(SCc2ccc(Cl)cc2)n2ccccc12)N1CCN(c2cc(Nc3cccc(Br)c3)ncn2)CC1` 0%

Can you handle `O=C(NCCc1ccc(O)cc1)c1cccc(Nc2nccc(Nc3ccc4ncsc4c3)n2)c1` next? 0%

Param item: `CN(C)CC(C)(C)CNC(=O)C1CCN(c2cc(N3CCOCC3)nc(N)n2)CC1` 0%

What do you get for `COc1cccc(Nc2cc(N3CCC[C@H]3C(=O)NCCN3CCCCC3)nc(N)n2)c1` ? 0%
